# Target System: BRM (Homo sapiens, UniProt P51531)
# Construct: In-Cell Western Screen of BRM Degradation in SW1573 Cells; endogenous in cells; host or cells: SW1573
# Sequence (P51531 whole entry): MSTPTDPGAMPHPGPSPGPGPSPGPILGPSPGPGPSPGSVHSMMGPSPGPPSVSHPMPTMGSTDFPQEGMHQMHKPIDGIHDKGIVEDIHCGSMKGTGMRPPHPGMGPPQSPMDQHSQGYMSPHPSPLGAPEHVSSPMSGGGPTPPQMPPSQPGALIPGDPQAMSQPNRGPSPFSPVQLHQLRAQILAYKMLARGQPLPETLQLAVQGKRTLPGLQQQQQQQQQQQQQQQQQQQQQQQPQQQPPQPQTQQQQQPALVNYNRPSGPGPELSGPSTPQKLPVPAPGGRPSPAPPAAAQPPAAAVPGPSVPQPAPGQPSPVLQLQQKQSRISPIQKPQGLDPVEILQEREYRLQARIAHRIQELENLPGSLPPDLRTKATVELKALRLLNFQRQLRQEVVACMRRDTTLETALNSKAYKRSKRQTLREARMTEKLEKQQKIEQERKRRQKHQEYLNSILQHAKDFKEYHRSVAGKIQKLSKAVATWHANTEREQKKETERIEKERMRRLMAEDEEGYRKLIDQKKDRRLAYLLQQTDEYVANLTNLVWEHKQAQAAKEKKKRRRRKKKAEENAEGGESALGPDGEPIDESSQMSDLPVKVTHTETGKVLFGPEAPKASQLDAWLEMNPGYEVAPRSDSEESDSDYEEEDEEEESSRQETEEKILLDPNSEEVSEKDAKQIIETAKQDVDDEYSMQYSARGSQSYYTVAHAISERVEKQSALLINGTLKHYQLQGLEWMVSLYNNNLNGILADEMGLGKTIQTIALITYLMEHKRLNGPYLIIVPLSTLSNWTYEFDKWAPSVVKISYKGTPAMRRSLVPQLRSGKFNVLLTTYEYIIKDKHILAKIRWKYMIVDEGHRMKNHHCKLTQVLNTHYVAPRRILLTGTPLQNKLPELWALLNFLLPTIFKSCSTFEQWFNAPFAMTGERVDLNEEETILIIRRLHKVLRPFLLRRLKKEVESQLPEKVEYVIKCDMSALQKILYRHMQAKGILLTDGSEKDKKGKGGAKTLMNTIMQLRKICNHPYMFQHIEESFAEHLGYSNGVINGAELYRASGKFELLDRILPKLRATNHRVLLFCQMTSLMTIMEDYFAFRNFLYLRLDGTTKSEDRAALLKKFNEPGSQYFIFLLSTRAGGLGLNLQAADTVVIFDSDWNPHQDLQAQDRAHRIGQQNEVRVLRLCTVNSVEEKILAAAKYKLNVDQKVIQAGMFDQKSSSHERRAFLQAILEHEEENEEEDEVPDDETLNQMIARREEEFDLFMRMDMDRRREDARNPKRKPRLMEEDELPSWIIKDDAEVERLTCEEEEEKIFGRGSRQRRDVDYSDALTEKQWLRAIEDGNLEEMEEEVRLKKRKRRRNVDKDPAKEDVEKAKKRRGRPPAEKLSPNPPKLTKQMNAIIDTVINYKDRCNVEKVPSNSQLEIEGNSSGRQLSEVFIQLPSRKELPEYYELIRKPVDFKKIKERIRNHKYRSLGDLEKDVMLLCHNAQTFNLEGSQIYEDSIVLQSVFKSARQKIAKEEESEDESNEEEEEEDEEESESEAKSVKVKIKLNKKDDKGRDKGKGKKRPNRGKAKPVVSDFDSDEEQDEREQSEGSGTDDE
# Assay Details: In-cell Western screen of BRM degradation in SW1573 cells (Dmax and DC50)
# Assay type: cell-based
# Stated Conditions: degradation of BRM; read-out: BRM DC50
Observed Property: DC50

INSERT INTO assay_data (compound, result) VALUES
  ('CC(C)[C@@H](C(=O)N1C[C@H](O)C[C@H]1C(=O)N[C@@H](C)c1ccc(-c2c(F)cnn2C)cc1)c1cc(OCCN2CCN(CCOc3cc(N4C5CCC4CN(c4cc(-c6ccccc6O)nnc4N)C5)ccn3)CC2)no1 [compound 410]', '< 2.5 nM'),
  ('Cc1ncsc1-c1ccc([C@H](C)NC(=O)[C@@H]2C[C@@H](O)CN2C(=O)[C@@H](c2cc(OCCN3CCC(C(=O)N4CC(Oc5cc(N6C7CCC6CN(c6cc(-c8ccccc8O)nnc6N)C7)ccn5)C4)CC3)no2)C(C)C)cc1 [compound 405]', '< 2.5 nM'),
  ('Cc1cc([C@@H](C(=O)N2C[C@H](O)C[C@H]2C(=O)N[C@@H](C)c2ccc(-c3scnc3C)cc2)[C@H](C)COCCCCN2C3CCC2CN(c2cc(-c4ccccc4O)nnc2N)C3)on1 [compound 424]', '> 30 nM'),
  ('CC(C)[C@@H](C(=O)N1C[C@H](O)C[C@H]1C(=O)N[C@@H](C)c1ccc(C2CC2(F)F)cc1)c1cc(OCCN2CCC(O[C@H]3C[C@H](Oc4cc(N5C6CCC5CN(c5cc(-c7ccccc7O)nnc5N)C6)ccn4)C3)CC2)no1 (some centres unmarked) [compound 439]', '> 30 nM'),
  ('CC(C)[C@@H](C(=O)N1C[C@H](O)C[C@H]1C(=O)N[C@@H](C)c1ccc(-c2scnc2N)cc1)c1cc(OCCN2CCC(O[C@H]3C[C@H](Oc4cc(N5C6CCC5CN(c5cc(-c7ccccc7O)nnc5N)C6)ccn4)C3)CC2)no1 [compound 416]', '< 2.5 nM'),
  ('Cc1ncsc1-c1ccc([C@H](C)NC(=O)[C@@H]2C[C@@H](O)CN2C(=O)[C@@H](c2cc(N3CCN(CC4CCN(C[C@H]5C[C@H](Oc6cc(N7C8CCC7CN(c7cc(-c9ccccc9O)nnc7N)C8)ccn6)C5)CC4)CC3)no2)C(C)C)cn1 [compound 427]', '< 2.5 nM'),
  ('CC(C)[C@@H](C(=O)N1C[C@H](O)C[C@H]1C(=O)NCc1ccc(C2(F)CC2)cc1)c1cc(OCCN2CCC(O[C@H]3C[C@H](Oc4cc(N5C6CCC5CN(c5cc(-c7ccccc7O)nnc5N)C6)ccn4)C3)CC2)no1 [compound 419]', '2.5 to 10 nM'),
  ('Cc1ncsc1-c1ccc([C@H](C)NC(=O)[C@@H]2C[C@@H](O)CN2C(=O)[C@@H](c2cc(OCCN3CCC(CN4CC(Oc5cc(N6C7CCC6CN(c6cc(-c8ccccc8O)nnc6N)C7)ccn5)C4)CC3)no2)C(C)C)cc1 [compound 406]', '> 30 nM');

* * *

# Target System: BRM (Homo sapiens, UniProt P51531)
# Construct: In-Cell Western Screen of BRM Degradation in SW1573 Cells; endogenous in cells; host or cells: SW1573
# Assay Details: In-cell Western screen of BRM degradation in SW1573 cells (Dmax and DC50)
# Format: cell-based
# Stated Conditions: BRM degradation, SW1573 cells; read-out: DC50
Observed Property: DC50

INSERT INTO results (compound, result) VALUES
  ('Cc1ncsc1-c1ccc([C@H](C)NC(=O)[C@@H]2C[C@@H](O)CN2C(=O)[C@@H](c2cc(N3CCC[C@@H](CN4CCC(O[C@H]5C[C@H](Oc6cc(N7C8CCC7CN(c7cc(-c9ccccc9O)nnc7N)C8)ccn6)C5)CC4)C3)no2)C(C)C)cc1 (single isomer, unassigned)', '< 2.5 nM'),
  ('Cc1ncsc1-c1ccc([C@H](C)NC(=O)[C@@H]2C[C@@H](O)CN2C(=O)[C@H](c2cc(OCCN3CCN(CCC#CCn4cc(-c5cc(-c6ccccc6O)nnc5N)cn4)CC3)no2)C(C)C)cn1', '> 30 nM'),
  ('Cc1ncsc1-c1ccc(CNC(=O)[C@@H]2C[C@@H](O)CN2C(=O)[C@@H](c2cc(OCCOCCOCCn3cc(-c4cc(-c5ccccc5O)nnc4N)cn3)no2)C(C)C)cc1', '10 to 30 nM'),
  ('Cc1ncsc1-c1ccc([C@H](C)NC(=O)[C@@H]2C[C@@H](O)CN2C(=O)[C@@H](c2cc(OCCN3CCC(O[C@H]4C[C@H](OCCn5cc(-c6cc(-c7ccccc7O)nnc6N)cn5)C4)CC3)no2)C(C)C)cc1', '< 2.5 nM'),
  ('Cc1ncsc1-c1ccc([C@H](C)NC(=O)[C@@H]2C[C@@H](O)CN2C(=O)[C@@H](c2onc(OCCN3CCN(CCOc4cc(N5C6CCC5CN(c5cc(-c7ccccc7O)nnc5N)C6)ccn4)CC3)c2F)C(C)C)cc1', '< 2.5 nM'),
  ('COCc1ncsc1-c1ccc([C@H](C)NC(=O)[C@@H]2C[C@@H](O)CN2C(=O)C(c2cc(OCCN3CCN(CCOc4cc(N5C6CCC5CN(c5cc(-c7ccccc7O)nnc5N)C6)ccn4)CC3)no2)C(C)C)cc1 (some centres unmarked)', '< 2.5 nM'),
  ('Cc1ncsc1-c1ccc([C@H](C)NC(=O)[C@@H]2C[C@@H](O)CN2C(=O)[C@@H](c2cc(N3CCC(CN4CCC(O[C@H]5C[C@H](N6CCC(C(C)n7cc(-c8cc(-c9ccccc9O)nnc8N)cn7)CC6)C5)CC4)CC3)no2)C(C)C)cc1 (some centres unmarked)', '< 2.5 nM'),
  ('CC[C@@H](NC(=O)[C@@H]1C[C@@H](O)CN1C(=O)[C@@H](c1cc(N2CCC(CN3CCC(O[C@H]4C[C@H](Oc5cc(N6C7CCC6CN(c6cc(-c8ccccc8O)nnc6N)C7)ccn5)C4)CC3)CC2)no1)C(C)C)c1ccc(-c2scnc2C)cc1', '2.5 to 10 nM');

* * *

Dmax values, listed per item
# Target System: BRM (Homo sapiens, UniProt P51531)
# Construct: In-Cell Western Screen of BRM Degradation in SW1573 Cells; endogenous in cells; host or cells: SW1573
# Assay Details: In-cell Western screen of BRM degradation in SW1573 cells (Dmax and DC50)
# Format: cell-based
# Stated Conditions: BRM degradation, SW1573 cells; read-out: Dmax (% degraded)
Observed Property: Dmax

INSERT INTO results (molecule, result) VALUES
  ('Cc1ncsc1-c1ccc([C@H](C)NC(=O)[C@@H]2C[C@@H](O)CN2C(=O)[C@@H](c2cc(N3CCC(CN4CCC(O[C@H]5C[C@H](CN6CCC(C(C)n7cc(-c8cc(-c9ccccc9O)nnc8N)cn7)CC6)C5)CC4)CC3)no2)C(C)C)cc1 (some centres unmarked) [compound 642]', '> 75%'),
  ('Cc1ncsc1-c1ccc([C@H](C)NC(=O)[C@@H]2C[C@@H](O)CN2C(=O)[C@@H](c2cc(OCCN3CC[C@H](O[C@H]4C[C@H](Oc5cc(N6C7CCC6CN(c6cc(-c8ccccc8O)nnc6N)C7)ccn5)C4)C[C@@H]3C)no2)C(C)C)cc1 (single isomer, unassigned) [compound 636]', '> 75%');

* * *

# Target System: BRM (Homo sapiens)
# Construct: In-Cell Western Screen of BRM Degradation in SW1573 Cells; endogenous in cells; host or cells: SW1573
# Assay Details: In-cell Western screen of BRM degradation in SW1573 cells (Dmax and DC50)
# Assay type: cell-based
# Stated Conditions: BRM degradation, SW1573 cells; read-out: DC50
Observed Property: DC50

INSERT INTO measurements (compound, result) VALUES
  ('Cc1ncsc1-c1ccc([C@H](C)NC(=O)[C@@H]2C[C@@H](O)CN2C(=O)[C@@H](NC(=O)Cc2ccc(N3CCN(CCO[C@H]4C[C@H](Oc5cc(N6C7CCC6CN(c6cc(-c8ccccc8O)nnc6N)C7)ccn5)C4)CC3)nc2)C(C)(C)C)cc1 [compound 58]', '> 30 nM'),
  ('Cc1ncsc1-c1cc(F)c([C@H](C)NC(=O)[C@@H]2C[C@@H](O)CN2C(=O)[C@H](c2cc(N3CCC(CN4CCC(O[C@H]5C[C@H](Oc6cc(N7C8CCC7CN(c7cc(-c9ccccc9O)nnc7N)C8)ccn6)C5)CC4)CC3)no2)C(C)C)cc1F [compound 680]', '> 30 nM'),
  ('Cc1ncsc1-c1ccc([C@H](C)NC(=O)[C@@H]2C[C@@H](O)CN2C(=O)[C@@H](c2cc(N3CCC(CN4CCN(C[C@H]5C[C@H](Oc6cc(N7C8CCC7CN(c7cc(-c9ccccc9O)nnc7N)C8)ccn6)C5)C(C)C4C)CC3)no2)C(C)C)cc1 (stereo partly shown) [compound 705]', '< 2.5 nM'),
  ('Cc1ncsc1-c1ccc(CNC(=O)[C@@H]2C[C@@H](O)CN2C(=O)[C@H](c2cc(OCCOCCOCCOCCn3cc(-c4cc(-c5ccccc5O)nnc4N)cn3)no2)C(C)C)cc1 [compound 16]', '> 30 nM');
